test system: COLO 205 colon; assay: NCI-60 one-dose screen, 48 h (100 = growth as untreated, 0 = no growth, -100 = all killed); conditions: 10 µM unless noted
This is part of a sample that, as a whole, favours compounds with a hit. Of some 83,000 tested, about 20% had one in any assay.

| MOLECULE | growth (%) |
| --- | --- |
| O=c1cc(C(F)(F)F)[nH]c(=S)[nH]1 | 109 |
| CC(CC(CCC(=O)O)(c1ccccc1)c1ccccc1)N(C)C (configuration not stated) | 104 |
| C1CCc2onc(-c3noc4c3CCCCC4)c2CC1 | 118 |
| Cc1onc(-c2ccccc2Cl)c1C(=O)Cl | 108 |
| O=[N+]([O-])c1c(O)c(CNCCCO)cc(CNCCCO)c1O | 120 |
| COc1cc(C(=O)NC(=S)NCc2ccncc2)cc(OC)c1OC | 95.3 |
| O=C(O)C1CCCN1C(=O)OCc1ccccc1 (configuration not stated) | 107 |

* * *

test system: OVCAR-5 ovarian; assay: NCI-60 one-dose screen, 48 h (100 = growth as untreated, 0 = no growth, -100 = all killed); settings: 10 µM unless noted
About 83,000 compounds went through this panel and 20% of them were active in at least one assay; those are over-represented in the sample as a whole.
Reported growth values for the following compounds.

| COMPOUND | U | growth |
| --- | --- | --- |
| CC(=O)N(C)N=Nc1ccc(C)cc1 | % | 83.1 |
| NC(=S)c1c(N)n(C2OC(CO)C(O)C2O)c2ncnc(N)c12 (configuration not stated) | % | 3.64 |
| O=C(O)Cc1ccc(Cl)cc1 | % | 111 |
| CCN(Cc1ccc(Cl)c(Cl)c1)c1ccc2nc(N)nc(N)c2c1C | % | -100 |
| O=C(NC(=S)N1CC=CCC1)c1ccccc1 | % | 97.4 |
| O=C(c1ccccc1)c1ccc(-c2ccc(O)cc2)cc1 | % | 108 |
| NS(=O)(=O)c1cc(=O)[nH]c(=O)[nH]1 | % | 112 |
| CC(=O)N(C(C)=O)c1ccc(C)cc1 | % | 94.2 |
| Cc1ccc(/C=N/NC(N)=S)s1 | % | 104 |
| COc1cc(C(=O)NC(=S)NCc2ccncc2)cc(OC)c1OC | % | 107 |
| Cc1ccc(N2C(=O)c3cccc4c(N)c(S(=O)(=O)O)cc(c34)C2=O)cc1 | % | 84.7 |
| CCOC(=O)/C(O)=C(\C=N\C(=S)Nc1ccc(Cl)c(Cl)c1)C(=O)OCC | % | 91.8 |

* * *

tested on: NCI/ADR-RES ovarian; assay: NCI-60 one-dose screen, 48 h (100 = growth as untreated, 0 = no growth, -100 = all killed); conditions: 10 µM unless noted
The panel holds about 83,000 compounds, 20% with a hit somewhere; the sample as a whole holds those more often.

| COMPOUND | growth (%) |
| --- | --- |
| CN(C(=S)S(=O)(=O)C12CC3CC(CC(C3)C1)C2)c1ccccc1 | 102 |
| O=C1C=C[C@H](O)[C@@]2(CO)O[C@@H]12 | 86.3 |
| Nc1cc(F)ccc1[N+](=O)[O-] | 107 |
| CC(=O)O[C@H]1CC[C@]2(C)C3=C(C(=O)C[C@H]2C1(C)C)[C@]1(C)CC[C@H]([C@H](C)CCC(=O)O)[C@@]1(C)CC3=O | 100 |
| Nc1ncnc(Nc2ccc(C(F)(F)F)cc2)n1 | 104 |
| COC(=O)C1(CC(C)=O)NC(=S)NC(=O)C1C#N (configuration not stated) | 103 |
| C=C1C(=O)C2CCN1CC2 | 104 |
| CC(=O)C1C(=O)C(=O)N(c2cccc([N+](=O)[O-])c2)C1=O (configuration not stated) | 113 |
| COc1cccc(C(=O)O)c1OC | 99.4 |
| Cc1ccc(C)c2c1CCC2=O | 101 |
| CC(=O)OC/C(C)=C\CC(C)COC(C)=O (configuration not stated) | 104 |
| COc1ccc(C2CC(c3ccccc3)=Nc3ccccc3S2)cc1 (configuration not stated) | 94.7 |
